meta.source: ChEMBL document CHEMBL3407433

# target-desc: Pantothenate kinase 1 (Homo sapiens)
# Sequence (Q8TE04 whole entry): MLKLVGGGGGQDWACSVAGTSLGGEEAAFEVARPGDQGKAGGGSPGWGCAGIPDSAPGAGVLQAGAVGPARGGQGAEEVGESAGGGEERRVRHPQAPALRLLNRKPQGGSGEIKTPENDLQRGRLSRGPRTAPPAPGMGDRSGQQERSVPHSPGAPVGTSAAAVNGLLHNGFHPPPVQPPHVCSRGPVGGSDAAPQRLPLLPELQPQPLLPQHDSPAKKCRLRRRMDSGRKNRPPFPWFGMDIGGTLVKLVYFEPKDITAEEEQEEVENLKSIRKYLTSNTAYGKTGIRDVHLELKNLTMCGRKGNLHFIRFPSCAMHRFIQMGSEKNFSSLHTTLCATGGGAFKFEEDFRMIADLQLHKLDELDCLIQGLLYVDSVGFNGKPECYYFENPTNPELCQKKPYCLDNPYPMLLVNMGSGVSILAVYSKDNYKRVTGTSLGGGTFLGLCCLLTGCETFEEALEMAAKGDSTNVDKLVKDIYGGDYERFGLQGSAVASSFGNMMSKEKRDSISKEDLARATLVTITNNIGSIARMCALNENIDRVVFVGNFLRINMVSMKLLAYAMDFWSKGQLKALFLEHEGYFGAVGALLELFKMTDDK
# method-notes: Inhibition of purified human Pank1beta using d-[1-14C]pantothenate as substrate after 10 mins by radiochemical enzyme assay
measured-metric: IC50 (nM)

item_smiles=CSc1cccc(NC(=O)CCc2c(C)nc3c4cccnc4nn3c2C)c1 measured_metric=IC50 result_value=70

---

# target-desc: Pantothenate kinase 3 (Homo sapiens, UniProt Q9H999)
# Sequence (Q9H999 whole entry): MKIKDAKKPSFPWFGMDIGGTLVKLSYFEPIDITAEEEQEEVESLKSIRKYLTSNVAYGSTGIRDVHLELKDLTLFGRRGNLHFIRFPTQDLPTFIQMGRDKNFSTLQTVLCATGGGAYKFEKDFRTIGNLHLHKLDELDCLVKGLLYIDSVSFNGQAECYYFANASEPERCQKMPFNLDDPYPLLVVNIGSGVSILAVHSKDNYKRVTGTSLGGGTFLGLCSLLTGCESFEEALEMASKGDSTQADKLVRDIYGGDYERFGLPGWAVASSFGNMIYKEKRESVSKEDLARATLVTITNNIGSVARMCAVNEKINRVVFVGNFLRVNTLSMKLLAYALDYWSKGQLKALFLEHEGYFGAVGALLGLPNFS
# method-notes: Inhibition of Pank3 (unknown origin) by Kinase Glo HTS assay
pIC50: −log10 of the molar value.
In this section we review reported pIC50 values for a set of compounds.
measured-metric: pIC50

item_smiles=COC(=O)c1cccc(NC(=O)CCc2c(C)nc3c4cccnc4nn3c2C)c1 result_value="< 4.25"
item_smiles=Cc1nc2c3cccnc3nn2c(C)c1CCC(=O)NC1CCCCC1 result_value="< 4.25"
item_smiles=Cc1nc2c3cccnc3nn2c(C)c1CCC(=O)N(C)c1ccccc1 result_value="< 4.25"
item_smiles=Cc1nc2c3cccnc3nn2c(C)c1CCC(=O)Nc1ccc(F)cc1 result_value="< 4.25"
item_smiles=CSc1cccc(NC(=O)CCc2c(C)nc3c4cccnc4nn3c2C)c1 result_value=6.44
item_smiles=COc1cccc(CNC(=O)CCc2c(C)nc3c4cccnc4nn3c2C)c1 result_value="< 4.25"

---

In this section we review reported pEC50 values for a set of compounds.
# target-desc: UniProtKB Q9H999
# method-notes: Activation of Pank3 (unknown origin) by Kinase Glo HTS assay
pEC50: −log10 of the molar value.
measured-metric: pEC50

compound=Cc1ccc(NC(=O)N2CCN(c3ccccc3F)CC2)c(C)c1 target_desc="UniProtKB Q9H999" result_value=5.62
compound=O=C(Cc1ccc(F)cc1)N1CCN(c2nc3c(Cl)cccc3s2)CC1 target_desc="UniProtKB Q9H999" result_value=5.82
compound=CCN(CC)c1ccc(CNc2nn[nH]n2)cc1 target_desc="UniProtKB Q9H999" result_value=5.46
compound="CC(C(=O)Nc1cc(Cl)ccc1Cl)N1CCC(C(=O)NCc2ccccc2)CC1 (centres undefined)" target_desc="UniProtKB Q9H999" result_value=5.76

---

# target-desc: Pantothenate kinase 3 (Homo sapiens, UniProt Q9H999)
# method-notes: Inhibition of Pank3 (unknown origin) by Kinase Glo HTS assay
pIC50: −log10 of the molar value.
In this section we review reported pIC50 values for a set of compounds.
measured-metric: pIC50

item_smiles=Cc1ccc(NC(=O)CCc2c(C)nc3c4cccnc4nn3c2C)cc1 target_desc="Pantothenate kinase 3 (Homo sapiens, UniProt Q9H999)" measured_metric=pIC50 result_value=4.59
item_smiles=Cc1nc2c3cccnc3nn2c(C)c1CCC(=O)Nc1ccccc1 target_desc="Pantothenate kinase 3 (Homo sapiens, UniProt Q9H999)" measured_metric=pIC50 result_value=4.61
item_smiles=COc1cccc(NC(=O)CCc2c(C)nc3c4cccnc4nn3c2C)c1 target_desc="Pantothenate kinase 3 (Homo sapiens, UniProt Q9H999)" measured_metric=pIC50 result_value=5.79
item_smiles=Cc1nc2c3cccnc3nn2c(C)c1CCC(=O)NCc1cccc(F)c1 target_desc="Pantothenate kinase 3 (Homo sapiens, UniProt Q9H999)" measured_metric=pIC50 result_value=5.00
item_smiles=CC(=O)Nc1ccc(NC(=O)CCc2c(C)nc3c4cccnc4nn3c2C)cc1 target_desc="Pantothenate kinase 3 (Homo sapiens, UniProt Q9H999)" measured_metric=pIC50 result_value=6.46
item_smiles=COc1ccc(NC(=O)CCc2c(C)nc3c4cccnc4nn3c2C)cc1 target_desc="Pantothenate kinase 3 (Homo sapiens, UniProt Q9H999)" measured_metric=pIC50 result_value=4.95
